- testedOn: KOP receptor (Rattus norvegicus, UniProt P34975)
- Construct: from tissue; host or cells: Sprague-Dawley rat brain membranes
- Sequence (P34975 whole entry): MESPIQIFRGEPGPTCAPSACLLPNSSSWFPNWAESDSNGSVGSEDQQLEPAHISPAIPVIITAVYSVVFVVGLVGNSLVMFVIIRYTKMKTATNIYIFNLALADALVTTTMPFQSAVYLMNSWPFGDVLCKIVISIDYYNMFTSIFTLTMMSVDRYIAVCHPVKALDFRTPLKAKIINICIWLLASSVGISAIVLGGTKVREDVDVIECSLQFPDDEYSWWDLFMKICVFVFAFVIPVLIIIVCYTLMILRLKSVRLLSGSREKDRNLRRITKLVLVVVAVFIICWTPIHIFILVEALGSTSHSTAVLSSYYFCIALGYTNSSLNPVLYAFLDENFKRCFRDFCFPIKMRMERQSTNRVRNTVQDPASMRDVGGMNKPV
- procedureSummary: Radioligand binding assay, KOP receptor, rat brain membranes ([3H]U69,593)
Hi there, I'd appreciate the recorded pKi for every entry that follows.
Give bare numbers, as −log10 of the molar value.

COc1ccc2c(c1OC)C13C=C(C#N)C=CC1(OC)C(C2)N(C)CC3 (stereo not shown) [compound 5]
6.70
COc1ccc2c(c1OC)C13C=C(C(N)=O)CCC1(OC)C(C2)N(C)CC3 (stereo not shown) [compound 4]
6.98
COc1ccc2c3c1OC1C(C#N)=CCC4(OC)C(C2)N(C)CCC314 (stereo not shown) [compound 6]
6.71

Could you now consider this next compound?
Query :: pKi of COc1ccc2c3c1O[C@H]1C(=O)CC[C@@]4(OC)[C@@H](C2)N(C)CC[C@]314 [14-OMC, 14-O-methyloxycodone, reference compound] on KOP receptor (Rattus norvegicus, UniProt P34975)?
Result :: 6.34

* * *

Please go through the items and note down their ED50.
- Tested on: mice
- procedureSummary: Hot-plate test
- Format: in vivo
- experimentalConditions: Mus musculus, sc, 0.5 h, s.c., hot-plate test, 30 min after dosing, read-out: ED50 (95% CL) HP
Give bare numbers, in mg/kg.

Study these solved cases before continuing.
COc1ccc2c3c1O[C@H]1C(=O)CC[C@@]4(OC)[C@@H](C2)N(C)CC[C@]314 [14-OMC, 14-O-methyloxycodone, reference compound]
1.02
COc1ccc2c(c1OC)C13C=C(C(N)=O)CCC1(OC)C(C2)N(C)CC3 (stereo not shown) [compound 4]
1.3
COc1ccc2c(c1OC)C13C=C(C#N)C=CC1(OC)C(C2)N(C)CC3 (stereo not shown) [compound 5]
0.08

Now for a further molecule.
Query :: Name the recorded ED50 for COc1ccc2c3c1OC1C(C#N)=CCC4(OC)C(C2)N(C)CCC314 (stereo not shown) [compound 6] .
Result :: 0.089

* * *

- testedOn: UniProt P35372
- procedureSummary: Calcium mobilization assay in CHOhMOP cells expressing Gαqi5
- Format: cell-based
- Parameters: expressed in transfected cells; host or cells: CHO cells stably co-expressing Gαqi5
- experimentalConditions: read-out: Calcium mobilization assay Emax
Please mark Condition met if the recorded Emax is equal to or greater than 60%, and Condition not met if it falls below.

Known results for compounds:
COc1ccc2c(c1OC)C13C=C(C#N)CCC1(O)C(C2)N(C)CC3 (centres unmarked)
Condition met
COc1ccc2c(c1OC)C13C=C(C#N)C=CC1(OC)C(C2)N(C)CC3 (centres unmarked)
Condition met
COc1ccc2c3c1OC1C(C#N)=CCC4(OC)C(C2)N(C)CCC314 (centres unmarked)
Condition met

Next:
Query :: Kindly determine if Emax recorded for COc1ccc2c(c1O)C13C=C(C#N)CCC1(O)C(C2)N(C)CC3 (centres unmarked) is above or exactly 60%.
Result :: Condition not met

* * *

- testedOn: human MOP receptors (Homo sapiens, UniProt P35372)
- Sequence (P35372 whole entry): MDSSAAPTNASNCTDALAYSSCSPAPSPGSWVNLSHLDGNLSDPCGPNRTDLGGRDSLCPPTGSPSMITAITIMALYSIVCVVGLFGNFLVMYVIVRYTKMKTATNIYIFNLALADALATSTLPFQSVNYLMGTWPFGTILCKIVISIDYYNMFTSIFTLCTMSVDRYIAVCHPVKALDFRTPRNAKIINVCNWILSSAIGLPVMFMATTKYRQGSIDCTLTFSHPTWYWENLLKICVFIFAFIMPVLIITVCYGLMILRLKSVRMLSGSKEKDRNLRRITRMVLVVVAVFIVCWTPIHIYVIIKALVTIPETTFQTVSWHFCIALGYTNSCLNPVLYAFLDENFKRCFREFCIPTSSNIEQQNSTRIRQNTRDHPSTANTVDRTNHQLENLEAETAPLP
- procedureSummary: Calcium mobilization assay in CHOhMOP cells expressing Gαqi5
- Format: cell-based
- Set-up: expressed in transfected cells; host or cells: CHO cells stably co-expressing Gαqi5
- experimentalConditions: read-out: Calcium mobilization assay Emax
endpointName: Emax (%)
Give bare numbers, in %.

COc1ccc2c(c1O)C13C=C(C#N)CCC1(OC)C(C2)N(C)CC3 (stereo not drawn)
61

List Emax for every entry below, keeping the order given.
1. COc1ccc2c3c1O[C@H]1C(=O)CC[C@@]4(OC)[C@@H](C2)N(C)CC[C@]314 [14-OMC, 14-O-methyloxycodone, reference compound]
2. COc1ccc2c3c1O[C@H]1C(=O)CC[C@@]4(O)[C@@H](C2)N(C)CC[C@]314 [Oxycodone, oxycodone, reference compound]

Result ::
1. 72
2. 38
